Just for reference, paper PMC8912030 is where these values come from.

- Tested on: RAW 264.7 macrophages
- assay: Cell viability (MTT assay)
- Type: cell-based, mouse
- recorded conditions: 50 µM
// reported Cell Viability (% Control) for each item listed
The answer is to be given in % Control; state only the numeric part.

In the examples that follow, each entry is paired with its recorded Cell Viability (% Control).
compound: CC1CC2OC3(OC2C(C)(C)O)C1C1(C)CCC24CC25C=CC(=O)C(C)(C)C5CC=C4C1(C)C3O (centres unmarked)
Cell Viability (% Control): 88.54
--
compound: CC(=O)OC(C)(C)C1OC23OC1CC(C)C2C1(C)CCC2=C(CCC4C(=CCC(OC5OCC(O)C(O)C5O)C4(C)C)C2)C1(C)C3O (centres unmarked)
Cell Viability (% Control): 91.12
--
compound: CC(=O)OC(C)(C)C1OC23OC1CC(C)C2C1(C)C(O)CC2=C(CCC4C5(CCC(O5)C4(C)C)C2)C1(C)C3O (stereo not drawn) [Compound 2, 25-O-acetyl-12β-hydroxyacerinol]
Cell Viability (% Control): 69.14
--
compound: CC(=O)OC(C)(C)C1OC23OC1CC(C)C2C1(C)CC(=O)C2=C(C(O)CC4C5(CCC(O5)C4(C)C)C2)C1(C)C3O (stereo not drawn) [Compound 3, 25-O-acetyl-7β-hydroxy-11-oxoacerinol]
Cell Viability (% Control): 95.53

Respond only with Cell Viability (% Control) recorded for CC(C=CC1C(C)CC(O)CC1(C)C)=CC(=O)O (centres unmarked) 86.84

====

- System: LPS-activated NO production in RAW 264.7 macrophages
- assay: Inhibition of LPS-induced NO production (Griess reagent assay, nitrite)
- Format: cell-based, mouse
- recorded conditions: Mus musculus, RAW264.7; RAW 264.7, 1 μg/mL LPS, 20 h; mean ± SEM (n = 4) of 3 independent experiments; read-out: IC50 NO
// reported pIC50 for each item listed
The scale used: pIC50 is minus the common logarithm of the concentration in molar units.

In the examples that follow, each entry is paired with its recorded pIC50.
compound: CC(=O)OC(C)(C)C1OC23OC1CC(C)C2C1(C)CC(=O)C2=C(C(O)CC4C5(CCC(O5)C4(C)C)C2)C1(C)C3O (stereo not drawn) [Compound 3, 25-O-acetyl-7β-hydroxy-11-oxoacerinol]
pIC50: 5.18
--
compound: CC(=O)OC(C)(C)C1OC23OC1CC(C)C2C1(C)CCC2=C(CCC4C(=CCC(OC5OCC(O)C(O)C5O)C4(C)C)C2)C1(C)C3O (centres unmarked)
pIC50: 5.00
--
compound: O=c1c(O)c(-c2ccc(O)c(O)c2)oc2cc(O)cc(O)c12 [Quercetin, quercetin, reference compound]
pIC50: 4.46
--
compound: CC(C=CC1C(C)CC(O)CC1(C)C)=CC(=O)O (centres unmarked)
pIC50: 4.81

Turning now to a further compound:
Respond only with pIC50 recorded for CC(=O)OC(C)(C)C1OC23OC1CC(C)C2C1(C)C(O)CC2=C(CCC4C5(CCC(O5)C4(C)C)C2)C1(C)C3O (stereo not drawn) [Compound 2, 25-O-acetyl-12β-hydroxyacerinol] 5.08
